# System: HCT 116
# TEST: Cell proliferation assay
# Format: cell-based
# STUDY CONDITIONS: Homo sapiens; Table 7a; Colon (HCT-116); read-out: EC50
PROPERTY MEASURED: pEC50
A value of pEC50 is the negative decimal logarithm of a concentration given in moles per litre.

pEC50 recorded for this compound, Cc1ccccc1C(=O)Nc1nc(NC(=O)c2ccccc2C)n(-c2ccc(OC(F)(F)F)cc2)n1 [Compound 42] , is 7.06

###

# Test system: A2780
# TEST: Cell proliferation assay
# Type: cell-based
# STUDY CONDITIONS: Homo sapiens; Table 7a; Ovarian (A2780)
PROPERTY MEASURED: EC50 (nM)
Write down the numeric answer in nM and omit the unit.

EC50 recorded for this molecule, Cc1ccccc1C(=O)Nc1nc(NC(=O)c2ccccc2C)n(-c2ccc(OC(F)(F)F)cc2)n1 [Compound 42] , is 58
